# METHOD SUMMARY: in vivo
# RECORDED CONDITIONS: male, Indian origin, rhesus monkey, in vivo, sc, 100 mg/kg, AUC0-1008h
EXPERIMENTAL READOUT: AUC(0-t) (µM·h)
Kindly answer with a numeric value in µM·h, unit omitted.

Field request: AUC(0-t) | item: CC(C)(C#Cc1ccc(-c2ccc(Cl)c3c(NS(=O)(=O)C4CC4)nn(CC(F)F)c23)c([C@H](Cc2cc(F)cc(F)c2)NC(=O)Cn2nc(C(F)F)c3c2C(F)(F)[C@@H]2C[C@H]32)n1)S(C)(=O)=O [GS-CA1]
279

* * *

# METHOD SUMMARY: Plasma GS-CA1 pharmacokinetics in the repeat SHIV challenge study
# Assay type: in vivo, rhesus macaques of Indian origin
# RECORDED CONDITIONS: 300 mg/kg single s.c., n=8, mean ± SD
EXPERIMENTAL READOUT: Cmax (µM)
Express it in µM; write the number only.

Query (molecule): `CC(C)(C#Cc1ccc(-c2ccc(Cl)c3c(NS(=O)(=O)C4CC4)nn(CC(F)F)c23)c([C@H](Cc2cc(F)cc(F)c2)NC(=O)Cn2nc(C(F)F)c3c2C(F)(F)[C@@H]2C[C@H]32)n1)S(C)(=O)=O` ; field requested: Cmax
5.53
